The following compounds are listed with their measured solubility values.
Test summary: Solubility in coating solvent
Type: physicochemical
Condition info: in TFP (tetrafluoropropanol)
Give just the number in %; leave the unit off.

- CC1(C)CC(=O)C(=Cc2ccc(N3CCN(c4ccc(C=C5C(=O)CC(C)(C)CC5=O)o4)CC3)o2)C(=O)C1: 2
- CCN(CC)c1ccc(/C=C/c2cc[n+](Cc3ccccc3C[n+]3ccc(/C=C/c4ccc(N(CC)CC)cc4)cc3)cc2)cc1: 2
- CN(CCOC(=O)CCC(=O)OCCN(C)c1ccc(C(C#N)=C(C#N)C#N)cc1)c1ccc(C(C#N)=C(C#N)C#N)cc1: 1

Now turn to the next compound.
Answer with the recorded solubility of CN(CCC#N)c1ccc(/C=C/C2=[N+](CCCC[N+]3=C(/C=C/c4ccc(N(C)CCC#N)cc4)C(C)(C)c4ccccc43)c3ccccc3C2(C)C)cc1 only. 2
